Tested on: MOLT-4 leukemia
PROCEDURE_SUMMARY: NCI-60 one-dose screen, 48 h
TEST_CONTEXT: 10 µM unless noted
About 83,000 compounds went through this panel and 20% of them were active in at least one assay; those are over-represented in the sample as a whole. The source made the active and inactive calls. The calls were made as follows: active = growth percent below 10; inactive = the rest.
Valid outcomes are listed here; reply with one: active, inactive

Problem: Call for entry Clc1ccc(Nc2nccc(Nc3ccc4[nH]ncc4c3)n2)cc1 :
Solution: inactive

Problem: Call for entry CCOC(=O)c1sc(NC(=O)COc2ccc(/C=C3\Cc4ccc(Cl)cc4C3=O)cc2)nc1C :
Solution: inactive

Problem: Call for entry Oc1ccc(/C=N/Nc2nnc(N/N=C/c3ccc(O)cc3O)c3ccccc23)c(O)c1 :
Solution: active

Problem: Call for entry COc1cccc(Nc2ncnn3ccc(CN4CC[C@@H](N)[C@H](O)C4)c23)c1 :
Solution: inactive

Problem: Call for entry CN1CCN(c2nc(C3=C(c4c[nH]c5ccccc45)C(=O)NC3=O)c3ccccc3n2)CC1 :
Solution: inactive

Problem: Call for entry COc1cc2c(c(OC)c1)C1c3ccccc3NC(=O)N1CC2 (stereo not given) :
Solution: inactive

Problem: Call for entry NC(=O)c1c(OCc2c(F)cc(Br)cc2F)nsc1NC(=O)NCCCCN1CCCC1 :
Solution: active

Problem: Call for entry CCN(CC)c1cc2oc3cc(N)cc(=N)c-3nc2cc1C :
Solution: inactive

Problem: Call for entry C=C1C[C@H](O)[C@H](Br)C(C)(C)[C@@]12CCC(C)=C(Cl)C2 :
Solution: active

Problem: Call for entry C=CC[n+]1c(/C=C2\Sc3ccccc3N2C)sc(-c2ccccc2)c1-c1ccccc1 :
Solution: active
